All figures here come from patent US20070155803A1.

- TEST TARGET: UniProt P08311
- Sequence (P08311 21-244): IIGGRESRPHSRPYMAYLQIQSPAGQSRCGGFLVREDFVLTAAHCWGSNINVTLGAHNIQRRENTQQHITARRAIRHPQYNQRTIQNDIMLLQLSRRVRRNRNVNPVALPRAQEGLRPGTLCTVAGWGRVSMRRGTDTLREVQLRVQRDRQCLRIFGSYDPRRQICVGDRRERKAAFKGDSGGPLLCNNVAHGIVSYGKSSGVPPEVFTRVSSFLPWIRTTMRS
Square brackets hold non-standard residues; d marks the D form. Peptide text beside a SMILES is read from it. Phe(3-F) = N[C@@H](Cc1cccc(F)c1)C(=O)O; hPhe = N[C@@H](CCc1ccccc1)C(=O)O; Abu = CC[C@H](N)C(=O)O; azaGly = NNC(=O)O
RESULT TYPE: IC50

Give IC50 for CC[C@H](N)C(=O)NNC(=O)N[C@@H](CCc1ccccc1)C(=O)N[C@@H](Cc1cccc(F)c1)C(N)=O [Example 11] (H-[Abu][azaGly][hPhe][Phe(3-F)]-NH2) tested on UniProt P08311. > 10 µM

----------
- TEST TARGET: Human liver cathepsin B (Homo sapiens)
Square brackets hold non-standard residues; d marks the D form. Peptide text beside a SMILES is read from it. Phe(3-F) = N[C@@H](Cc1cccc(F)c1)C(=O)O; hPhe = N[C@@H](CCc1ccccc1)C(=O)O; Abu = CC[C@H](N)C(=O)O; azaGly = NNC(=O)O
RESULT TYPE: pIC50
Scale for pIC50: -log10 of concentration given in mol/L; no unit attached.

State measured pIC50 of the molecule CC[C@H](N)C(=O)NNC(=O)N[C@@H](CCc1ccccc1)C(=O)N[C@@H](Cc1cccc(F)c1)C(N)=O [Example 11] (H-[Abu][azaGly][hPhe][Phe(3-F)]-NH2) with Human liver cathepsin B (Homo sapiens). 5.35

----------
- TEST TARGET: Aspergillus DPP-IV (UniProt Q2UH35)
- Sequence (Q2UH35 1-771): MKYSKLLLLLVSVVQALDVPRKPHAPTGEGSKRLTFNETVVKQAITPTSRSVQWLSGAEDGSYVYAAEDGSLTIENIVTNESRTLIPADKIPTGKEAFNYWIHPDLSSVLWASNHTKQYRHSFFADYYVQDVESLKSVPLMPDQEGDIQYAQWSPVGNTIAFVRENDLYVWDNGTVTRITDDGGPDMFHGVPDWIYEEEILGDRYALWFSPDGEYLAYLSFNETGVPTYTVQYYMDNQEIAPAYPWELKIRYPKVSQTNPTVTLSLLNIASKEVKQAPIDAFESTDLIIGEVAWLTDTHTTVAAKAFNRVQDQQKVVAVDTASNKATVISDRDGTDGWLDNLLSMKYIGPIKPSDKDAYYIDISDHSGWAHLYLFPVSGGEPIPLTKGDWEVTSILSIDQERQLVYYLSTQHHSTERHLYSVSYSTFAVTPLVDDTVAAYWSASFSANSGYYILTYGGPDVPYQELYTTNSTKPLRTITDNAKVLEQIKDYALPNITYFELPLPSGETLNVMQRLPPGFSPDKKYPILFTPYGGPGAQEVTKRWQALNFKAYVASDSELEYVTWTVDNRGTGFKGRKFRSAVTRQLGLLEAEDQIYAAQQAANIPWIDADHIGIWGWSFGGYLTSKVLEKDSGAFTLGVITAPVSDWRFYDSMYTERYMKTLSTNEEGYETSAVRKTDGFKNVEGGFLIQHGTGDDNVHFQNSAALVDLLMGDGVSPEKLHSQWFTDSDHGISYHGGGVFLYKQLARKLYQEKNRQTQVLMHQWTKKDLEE
pIC50: −log10 of the molar value. Square brackets hold non-standard residues; d marks the D form. Peptide text beside a SMILES is read from it. Phe(3-F) = N[C@@H](Cc1cccc(F)c1)C(=O)O; hPhe = N[C@@H](CCc1ccccc1)C(=O)O; Abu = CC[C@H](N)C(=O)O; azaGly = NNC(=O)O
RESULT TYPE: pIC50

Consider the compound CC[C@H](N)C(=O)NNC(=O)N[C@@H](CCc1ccccc1)C(=O)N[C@@H](Cc1cccc(F)c1)C(N)=O [Example 11] (H-[Abu][azaGly][hPhe][Phe(3-F)]-NH2) . State its measured pIC50. < 5.00

----------
- TEST TARGET: CYP1A2 (Homo sapiens, UniProt P05177)
- Sequence (P05177 2-516 limits assumed): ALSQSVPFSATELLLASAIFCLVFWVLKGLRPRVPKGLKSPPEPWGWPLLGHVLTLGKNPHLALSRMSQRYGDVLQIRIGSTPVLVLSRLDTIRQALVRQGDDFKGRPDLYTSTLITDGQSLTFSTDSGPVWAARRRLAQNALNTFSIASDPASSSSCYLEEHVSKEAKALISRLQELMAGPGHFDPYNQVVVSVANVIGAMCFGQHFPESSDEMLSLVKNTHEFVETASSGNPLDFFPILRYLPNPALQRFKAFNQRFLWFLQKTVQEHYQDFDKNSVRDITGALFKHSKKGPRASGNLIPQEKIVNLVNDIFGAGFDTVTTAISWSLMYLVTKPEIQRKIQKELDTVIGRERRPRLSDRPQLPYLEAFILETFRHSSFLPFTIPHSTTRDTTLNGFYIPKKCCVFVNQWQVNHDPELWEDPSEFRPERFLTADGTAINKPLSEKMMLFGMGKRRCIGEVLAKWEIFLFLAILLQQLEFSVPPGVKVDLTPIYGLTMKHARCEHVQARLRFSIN
Square brackets hold non-standard residues; d marks the D form. Peptide text beside a SMILES is read from it. Phe(3-F) = N[C@@H](Cc1cccc(F)c1)C(=O)O; hPhe = N[C@@H](CCc1ccccc1)C(=O)O; Abu = CC[C@H](N)C(=O)O; azaGly = NNC(=O)O
RESULT TYPE: IC50

Give IC50 for this entry on CYP1A2 (Homo sapiens, UniProt P05177): CC[C@H](N)C(=O)NNC(=O)N[C@@H](CCc1ccccc1)C(=O)N[C@@H](Cc1cccc(F)c1)C(N)=O [Example 11] (H-[Abu][azaGly][hPhe][Phe(3-F)]-NH2) > 20 µM

----------
- TEST TARGET: Human liver cathepsin L (Homo sapiens)
- Sequence (P07711 114-333): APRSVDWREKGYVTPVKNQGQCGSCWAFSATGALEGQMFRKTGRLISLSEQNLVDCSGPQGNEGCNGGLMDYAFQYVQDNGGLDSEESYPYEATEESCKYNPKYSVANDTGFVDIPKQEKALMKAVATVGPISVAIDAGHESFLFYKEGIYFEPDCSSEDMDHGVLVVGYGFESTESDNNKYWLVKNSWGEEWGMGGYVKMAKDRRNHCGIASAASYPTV
pIC50: −log10 of the molar value. Square brackets hold non-standard residues; d marks the D form. Peptide text beside a SMILES is read from it. Phe(3-F) = N[C@@H](Cc1cccc(F)c1)C(=O)O; hPhe = N[C@@H](CCc1ccccc1)C(=O)O; Abu = CC[C@H](N)C(=O)O; azaGly = NNC(=O)O
RESULT TYPE: pIC50

Please look at this compound and report its pIC50: CC[C@H](N)C(=O)NNC(=O)N[C@@H](CCc1ccccc1)C(=O)N[C@@H](Cc1cccc(F)c1)C(N)=O [Example 11] (H-[Abu][azaGly][hPhe][Phe(3-F)]-NH2) < 5.00

----------
- TEST TARGET: Human liver cathepsin H (Homo sapiens, UniProt P09668)
- Sequence (P09668 98-335): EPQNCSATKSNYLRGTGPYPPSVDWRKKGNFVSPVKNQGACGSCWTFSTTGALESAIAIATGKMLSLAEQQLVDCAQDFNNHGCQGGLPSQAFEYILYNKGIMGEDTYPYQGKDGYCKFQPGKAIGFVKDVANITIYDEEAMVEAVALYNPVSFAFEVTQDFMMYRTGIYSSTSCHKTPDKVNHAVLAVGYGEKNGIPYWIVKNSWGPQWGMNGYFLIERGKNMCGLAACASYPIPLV
Square brackets hold non-standard residues; d marks the D form. Peptide text beside a SMILES is read from it. Phe(3-F) = N[C@@H](Cc1cccc(F)c1)C(=O)O; hPhe = N[C@@H](CCc1ccccc1)C(=O)O; Abu = CC[C@H](N)C(=O)O; azaGly = NNC(=O)O
RESULT TYPE: IC50 (µM)
Number in µM, nothing else.

# return IC50 for CC[C@H](N)C(=O)NNC(=O)N[C@@H](CCc1ccccc1)C(=O)N[C@@H](Cc1cccc(F)c1)C(N)=O [Example 11] (H-[Abu][azaGly][hPhe][Phe(3-F)]-NH2) , test system: Human liver cathepsin H (Homo sapiens, UniProt P09668) 3.2

----------
- TEST TARGET: Human neutrophil elastase (Homo sapiens)
- Sequence (P08246 30-267): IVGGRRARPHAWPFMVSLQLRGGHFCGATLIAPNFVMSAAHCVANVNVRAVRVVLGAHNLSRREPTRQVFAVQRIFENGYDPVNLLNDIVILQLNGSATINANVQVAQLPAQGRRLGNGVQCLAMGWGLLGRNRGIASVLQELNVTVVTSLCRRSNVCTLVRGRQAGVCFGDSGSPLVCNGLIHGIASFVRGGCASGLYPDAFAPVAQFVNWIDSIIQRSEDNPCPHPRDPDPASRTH
- ASSAY: Human neutrophil elastase assay
- CONDITION DESCRIPTION: human neutrophil elastase; 10 μM cutoff; read-out: Secondary enzymatic screening (10 μM cutoff or IC50) Neutrophil elastase
pIC50: −log10 of the molar value. Square brackets hold non-standard residues; d marks the D form. Peptide text beside a SMILES is read from it. Phe(3-F) = N[C@@H](Cc1cccc(F)c1)C(=O)O; hPhe = N[C@@H](CCc1ccccc1)C(=O)O; Abu = CC[C@H](N)C(=O)O; azaGly = NNC(=O)O
RESULT TYPE: pIC50

Fill in: pIC50 on Human neutrophil elastase (Homo sapiens), entry CC[C@H](N)C(=O)NNC(=O)N[C@@H](CCc1ccccc1)C(=O)N[C@@H](Cc1cccc(F)c1)C(N)=O [Example 11] (H-[Abu][azaGly][hPhe][Phe(3-F)]-NH2) < 5.00

----------
- ASSAY: Metabolic stability in rat liver microsomes
- Assay type: in vitro ADME
- CONDITION DESCRIPTION: pH 7.4; rat liver microsomes 0.3 mg/mL, test compound 1 μM, 37° C.; read-out: Metabolic stability (t1/2 in min.) Rat liver microsomes
Square brackets hold non-standard residues; d marks the D form. Peptide text beside a SMILES is read from it. Phe(3-F) = N[C@@H](Cc1cccc(F)c1)C(=O)O; hPhe = N[C@@H](CCc1ccccc1)C(=O)O; Abu = CC[C@H](N)C(=O)O; azaGly = NNC(=O)O
RESULT TYPE: half-life at 1 μM (min)
Expressed in min, but write only the number.

Identify measured half-life at 1 μM corresponding to CC[C@H](N)C(=O)NNC(=O)N[C@@H](CCc1ccccc1)C(=O)N[C@@H](Cc1cccc(F)c1)C(N)=O [Example 11] (H-[Abu][azaGly][hPhe][Phe(3-F)]-NH2) 23
